Data provenance: PubChem BioAssay (Tox21)

Test: qHTS assay to identify small molecule agonists of the farnesoid-X-receptor (FXR) signaling pathway - cell viability counter screen (AID 743218); further: nearly all actives have a fitted effect of over 45% in size; further: potency means the concentration at half of the fitted maximal effect
Details: FXR-bla HEK293T viability, CellTiter-Glo luminescence, 16 h; series mostly up to 62.6 µM
Results filed as inconclusive are left out. Activity calls are given as the source filed them. The call rests on the fitted dose curve; in most records, active means well fitted cell-killing curve with a large enough effect in the repeat runs; inconclusive means weak or mixed curves, or effect the other way; inactive means no such curve, though single readings can be large or run the other way.
propertyLabel: Potency

Previously resolved entries follow.
compound	Potency
N=C1N=C(N)c2ccccc21	inactive
CCCCCCCCNC(C)C(O)c1ccc(SC(C)C)cc1 (stereo not given)	18.8 µM (active)
Oc1ccc(N=Nc2ccccc2)cc1	inactive
Cc1[nH]nc2c1N=C(c1ccccc1Cl)c1cc([N+](=O)[O-])ccc1N2	24.5 µM (active)
CCCCCCCCCCn1cc[n+](CCCCCCCCCC)c1C	39 µM (active)

Now turn to the next compound.
### Prompt Look at this compound and give its reported Potency. O=C(OCC(COC(=O)c1ccccc1)(COC(=O)c1ccccc1)COC(=O)c1ccccc1)c1ccccc1
### Response inactive
